Taken from patent US8710089B2.

# target under test: Motilin-Receptor 1a (MTL-R1a) (Homo sapiens, UniProt O43193)
# Sequence (O43193 whole entry): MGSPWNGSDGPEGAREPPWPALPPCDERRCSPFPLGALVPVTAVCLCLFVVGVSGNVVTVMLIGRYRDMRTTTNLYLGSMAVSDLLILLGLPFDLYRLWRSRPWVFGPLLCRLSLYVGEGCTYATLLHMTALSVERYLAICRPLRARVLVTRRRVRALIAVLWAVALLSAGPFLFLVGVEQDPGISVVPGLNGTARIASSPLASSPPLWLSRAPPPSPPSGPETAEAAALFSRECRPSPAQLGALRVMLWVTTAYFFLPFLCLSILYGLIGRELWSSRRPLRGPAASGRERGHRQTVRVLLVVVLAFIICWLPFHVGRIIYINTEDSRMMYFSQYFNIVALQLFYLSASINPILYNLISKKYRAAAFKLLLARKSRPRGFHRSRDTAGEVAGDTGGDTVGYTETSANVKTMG
# assay procedure: Motilin receptor-ligand binding assay (human recombinant HEK-293 cells)
# recorded conditions: 0.1 nM [125I] Motilin, read-out: MTL-R 1a IC50
pIC50: −log10 of the molar value.
readout name: pIC50

                                   compound                         target_under_test  readout_name  endpoint_value
0  COc1ccc(Cn2c(CCc3ccccc3)nnc2[C@@H](Cc2c[nH]c3ccccc23)NC(=O)C2CCNCC2)cc1 [compound 44]  Motilin-Receptor 1a (MTL-R1a) (Homo sapiens, UniProt O43193)         pIC50            5.79
1  COc1ccc(Cn2c(CCc3ccccc3)nnc2[C@@H](Cc2c[nH]c3ccccc23)NC(=O)c2ccccn2)c(OC)c1 [compound 64]  Motilin-Receptor 1a (MTL-R1a) (Homo sapiens, UniProt O43193)         pIC50            5.86

###

# target under test: human GHS-R 1a (Homo sapiens)
# Sequence (Q92847 whole entry): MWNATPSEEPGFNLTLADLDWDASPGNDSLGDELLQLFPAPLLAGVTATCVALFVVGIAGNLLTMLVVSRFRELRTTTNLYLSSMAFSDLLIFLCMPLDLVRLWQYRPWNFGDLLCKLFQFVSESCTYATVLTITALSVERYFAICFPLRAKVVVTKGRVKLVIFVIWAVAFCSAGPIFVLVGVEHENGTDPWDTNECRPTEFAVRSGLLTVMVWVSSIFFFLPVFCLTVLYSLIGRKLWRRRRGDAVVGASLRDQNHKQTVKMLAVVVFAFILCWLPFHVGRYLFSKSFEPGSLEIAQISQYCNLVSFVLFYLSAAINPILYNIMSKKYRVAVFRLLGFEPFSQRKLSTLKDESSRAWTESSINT
# assay procedure: GHS-R 1a receptor-ligand binding assay (membrane preparations from transfected LLC PK-1 cells)
# recorded conditions: displacement of 125I-His9-ghrelin (60 pM); membranes of LLC PK-1 cells transfected with human GHS-R 1a; mean of at least two independent experiments in triplicates
pIC50: −log10 of the molar value.
readout name: pIC50

Solved cases below.
                                   molecule  endpoint_value
0  COc1ccc(Cn2c(CCc3ccccc3)nnc2[C@@H](Cc2c[nH]c3ccccc23)NC(=O)[C@@H]2CCCN2)cc1            7.92
1  COc1ccc(Cn2c(CCc3c[nH]c4ccccc34)nnc2[C@@H](Cc2c[nH]c3ccccc23)NC(=O)c2cnccn2)c(OC)c1            7.72
2  COc1ccc(Cn2c(CCc3c[nH]c4ccccc34)nnc2[C@@H](Cc2c[nH]c3ccccc23)NC(=O)C2CNCCN2)c(OC)c1 (mixture of isomers)            7.49
3  O=C(N[C@H](Cc1c[nH]c2ccccc12)c1nnc(CCc2c[nH]c3ccccc23)n1Cc1ccccc1)C1CCCNC1 (mixture of isomers)            7.96

(1) COc1ccc(Cn2c(CCc3c[nH]c4ccccc34)nnc2[C@@H](Cc2c[nH]c3ccccc23)NC(=O)[C@H]2CCCNC2)cc1
(2) COc1ccc(-n2c(CCc3ccccc3)nnc2[C@@H](Cc2c[nH]c3ccccc23)NC(=O)Cc2ccccn2)c(OC)c1
Qu. Hello, I am sorting some records. Could you say if 1 or 2 has the smaller pIC50 value? Choose, then provide that item's label.
Ans. 2

###

# target under test: human GHS-R 1a (Homo sapiens)
# assay procedure: GHS-R 1a receptor-ligand binding assay (membrane preparations from transfected LLC PK-1 cells)
# recorded conditions: displacement of 125I-His9-ghrelin (60 pM); membranes of LLC PK-1 cells transfected with human GHS-R 1a; mean of at least two independent experiments in triplicates
pIC50: −log10 of the molar value.
readout name: pIC50

>>> print(df.to_string())
                                   compound  readout_name  endpoint_value
0  COc1ccc(Cn2c(CCc3c[nH]c4ccccc34)nnc2[C@@H](Cc2c[nH]c3ccccc23)NC(=O)C(C)(C)N)c(OC)c1         pIC50            6.80
1  CC(C)(N)C(=O)N[C@H](Cc1c[nH]c2ccccc12)c1nnc(Cc2ccccc2)n1Cc1cccc2ccccc12         pIC50            6.66
2  COc1ccc(Cn2c(CCc3c[nH]c4ccccc34)nnc2[C@@H](Cc2c[nH]c3ccccc23)NC(=O)C2CCCCC2N)c(OC)c1 (stereo partly shown)         pIC50            6.84
3  COc1ccc(Cn2c(CCc3c[nH]c4ccccc34)nnc2[C@@H](Cc2c[nH]c3ccccc23)NC(=O)[C@H]2CCCN2)cc1         pIC50            7.55
4  COc1ccc(Cn2c(CCc3ccccc3)nnc2[C@@H](Cc2c[nH]c3ccccc23)NC(=O)C2CCNCC2)c(OC)c1         pIC50            9.05
5  CCCCCCn1c(CCCc2c[nH]c3ccccc23)nnc1[C@@H](Cc1c[nH]c2ccccc12)NC(=O)C(C)(C)N         pIC50            6.62
6  COc1ccc(Cn2c(CCc3c[nH]c4ccccc34)nnc2[C@@H](Cc2c[nH]c3ccccc23)NS(=O)(=O)c2ccc(C)cc2)c(OC)c1         pIC50            7.18
7  COc1ccc(Cn2c(CCc3c[nH]c4ccccc34)nnc2[C@@H](Cc2c[nH]c3ccccc23)NC(=O)C2CNCCN2)cc1 (stereo partly shown)         pIC50            7.74

(A) O=C(N[C@H](Cc1c[nH]c2ccccc12)c1nnc(CCc2c[nH]c3ccccc23)n1Cc1ccccc1)C1CCNCC1
(B) CC(C)(N)C(=O)N[C@H](Cc1c[nH]c2ccccc12)c1nnc(CCCc2c[nH]c3ccccc23)n1Cc1cccc2ccccc12
(C) COc1ccc(Cn2c(CCc3ccccc3)nnc2[C@@H](Cc2c[nH]c3ccccc23)NC(=O)C(C)(C)N)cc1
Qu. Sort entries by pIC50 from minimum to maximum value. List the labels in the requested order.
Ans. B, A, C
